These measurements were taken from paper PMC8151276.

This section presents molecules with their documented NanoBRET Fold Response values.
target: PTGER1 (Homo sapiens, UniProt P34995); construct: purchased Promega (in-house HiBiT-GPCR construct library, NanoBRET); assay: NanoBRET screen HiBiT-PTGER1 in HEK293; format: binding; settings: PTGER1; tracer 0.1μM
Sequence (P34995 whole entry): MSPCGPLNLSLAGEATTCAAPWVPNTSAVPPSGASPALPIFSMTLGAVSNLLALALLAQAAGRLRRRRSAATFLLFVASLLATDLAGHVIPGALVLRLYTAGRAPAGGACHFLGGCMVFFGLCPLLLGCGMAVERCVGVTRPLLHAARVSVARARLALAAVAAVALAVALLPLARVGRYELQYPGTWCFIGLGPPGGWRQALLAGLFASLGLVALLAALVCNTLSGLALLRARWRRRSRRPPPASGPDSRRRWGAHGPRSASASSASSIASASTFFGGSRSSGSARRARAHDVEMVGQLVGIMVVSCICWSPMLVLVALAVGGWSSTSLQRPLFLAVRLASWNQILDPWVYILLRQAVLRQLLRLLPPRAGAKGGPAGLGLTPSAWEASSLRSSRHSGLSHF
Measure name: NanoBRET Fold Response

structure_as_smiles=O=C(CCOCCOCCOCCOCCNC(=O)CCc1ccc2n1[B-](F)(F)[N+]1=C(c3ccc[nH]3)C=CC1=C2)NCCCN1CCN(C2=Nc3ccccc3Oc3ccc(Cl)cc32)CC1 measure_name="NanoBRET Fold Response" observed_value=1.09
structure_as_smiles=COc1ccccc1N1CCN(CCCCN2C(=O)c3ccc(CNC(=O)CCOCCOCCOCCOCCNC(=O)CCc4ccc5n4[B-](F)(F)[N+]4=C(c6ccc[nH]6)C=CC4=C5)cc3C2=O)CC1 measure_name="NanoBRET Fold Response" observed_value=0.93
structure_as_smiles=COc1ccccc1N1CCN(CCCCN2C(=O)c3ccc(CNC(=O)CCOCCNC(=O)c4ccc(CNC(=O)CCc5ccc6n5[B-](F)(F)[N+]5=C(c7ccc[nH]7)C=CC5=C6)cc4)cc3C2=O)CC1 measure_name="NanoBRET Fold Response" observed_value=0.89

====

This section presents compounds with their documented NanoBRET Fold Response values.
target: NPFFR2 (Homo sapiens, UniProt Q9Y5X5); construct: purchased Promega (in-house HiBiT-GPCR construct library, NanoBRET); assay: NanoBRET screen HiBiT-NPFFR2 in HEK293; assay type: binding; settings: NPFFR2; tracer 1μM
Sequence (Q9Y5X5 whole entry): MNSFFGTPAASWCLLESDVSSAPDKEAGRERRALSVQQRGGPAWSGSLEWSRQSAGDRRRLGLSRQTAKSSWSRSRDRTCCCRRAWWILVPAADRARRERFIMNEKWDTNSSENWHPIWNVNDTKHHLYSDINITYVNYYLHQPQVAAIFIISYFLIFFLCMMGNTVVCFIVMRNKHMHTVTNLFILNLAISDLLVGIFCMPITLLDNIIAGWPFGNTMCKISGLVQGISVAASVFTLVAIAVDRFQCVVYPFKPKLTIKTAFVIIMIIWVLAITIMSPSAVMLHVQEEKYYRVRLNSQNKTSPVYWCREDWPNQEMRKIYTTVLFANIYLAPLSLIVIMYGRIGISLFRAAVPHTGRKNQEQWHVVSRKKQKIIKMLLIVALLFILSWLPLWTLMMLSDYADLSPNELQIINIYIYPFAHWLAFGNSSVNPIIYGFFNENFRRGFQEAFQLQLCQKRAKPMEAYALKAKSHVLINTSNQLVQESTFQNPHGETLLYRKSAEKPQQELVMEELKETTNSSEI
Measure name: NanoBRET Fold Response

compound="O=C(CCc1ccc2n1[B-](F)(F)[N+]1=C(c3ccc[nH]3)C=CC1=C2)NCc1ccc(C(=O)NCCOCCC(=O)N[C@@H]2CC[C@@]3(O)[C@H]4Cc5ccc(O)c6c5[C@@]3(CCN4CC3CC3)[C@H]2O6)cc1 [Naltrexone-3-NB590]" observed_value=0.95
compound=CC(C)N(CC[C@H](c1ccccc1)c1cc(CCNC(=O)CCOCCOCCOCCOCCNC(=O)CCc2ccc3n2[B-](F)(F)[N+]2=C(c4ccc[nH]4)C=CC2=C3)ccc1O)C(C)C observed_value=1.06
compound=O=C(CCc1ccc2n1[B-](F)(F)[N+]1=C(c3ccc[nH]3)C=CC1=C2)NCCOCCOCCNC(=O)OCCOCCN1CCN(C2=Nc3ccccc3Sc3ccccc32)CC1 observed_value=0.97
compound=N#CN=C(NCCCOc1cccc(CN2CCCCC2)c1)NCCNC(=O)CCOCCOCCOCCOCCNC(=O)CCc1ccc2n1[B-](F)(F)[N+]1=C(c3ccc[nH]3)C=CC1=C2 observed_value=1.02
compound=CC(C)N(CC[C@H](c1ccccc1)c1cc(CCNC(=O)c2ccc(CNC(=O)CCc3ccc4n3[B-](F)(F)[N+]3=C(c5ccc[nH]5)C=CC3=C4)cc2)ccc1O)C(C)C observed_value=1.02

====

biological target: FZD9 (Homo sapiens); construct: purchased Promega (in-house HiBiT-GPCR construct library, NanoBRET); assay: NanoBRET screen HiBiT-FZD9 in HEK293; type: binding; details: FZD9; tracer 0.1μM
Sequence (O00144 23-591): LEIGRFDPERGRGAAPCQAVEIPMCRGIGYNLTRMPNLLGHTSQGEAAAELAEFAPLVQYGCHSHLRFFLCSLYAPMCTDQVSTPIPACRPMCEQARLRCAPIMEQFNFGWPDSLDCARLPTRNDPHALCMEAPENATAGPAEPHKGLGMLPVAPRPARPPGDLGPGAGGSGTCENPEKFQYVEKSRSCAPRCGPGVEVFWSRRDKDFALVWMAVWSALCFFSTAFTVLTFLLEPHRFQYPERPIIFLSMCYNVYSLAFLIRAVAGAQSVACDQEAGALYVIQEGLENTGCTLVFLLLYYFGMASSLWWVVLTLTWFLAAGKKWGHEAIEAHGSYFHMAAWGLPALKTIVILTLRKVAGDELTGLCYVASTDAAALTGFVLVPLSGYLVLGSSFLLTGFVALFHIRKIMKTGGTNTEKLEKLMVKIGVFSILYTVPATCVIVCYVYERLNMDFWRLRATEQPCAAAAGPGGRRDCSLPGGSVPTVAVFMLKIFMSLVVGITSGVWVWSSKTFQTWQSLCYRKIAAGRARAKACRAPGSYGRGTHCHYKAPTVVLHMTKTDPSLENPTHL
This section presents molecules with their documented NanoBRET Fold Response values.
Measure name: NanoBRET Fold Response

molecule=COc1ccccc1N1CCN(CCCCN2C(=O)c3ccc(CNC(=O)CCOCCOCCOCCOCCNC(=O)CCc4ccc5n4[B-](F)(F)[N+]4=C(c6ccc[nH]6)C=CC4=C5)cc3C2=O)CC1 observed_value=0.96
molecule=O=C(CCOCCOCCOCCOCCNC(=O)CCc1ccc2n1[B-](F)(F)[N+]1=C(c3ccc[nH]3)C=CC1=C2)NCCCN1CCN(C2=Nc3ccccc3Oc3ccc(Cl)cc32)CC1 observed_value=1.00
molecule="Cc1nc2n(c(=O)c1CCN1CCC(c3noc4cc(F)ccc34)CC1)CCCC2OC(=O)NCCOCCOCCOCCOCCNC(=O)CCc1ccc2n1[B-](F)(F)[N+]1=C(c3ccc[nH]3)C=CC1=C2 (centres unmarked)" observed_value=1.00
molecule=Cc1cc2c(s1)Nc1ccccc1N=C2N1CCN(CCCNC(=O)CCOCCOCCOCCOCCNC(=O)CCc2ccc3n2[B-](F)(F)[N+]2=C(c4ccc[nH]4)C=CC2=C3)CC1 observed_value=0.95
molecule=COc1ccccc1N1CCN(CCCCN2C(=O)c3ccc(CNC(=O)CCOCCNC(=O)c4ccc(CNC(=O)CCc5ccc6n5[B-](F)(F)[N+]5=C(c7ccc[nH]7)C=CC5=C6)cc4)cc3C2=O)CC1 observed_value=0.94

====

Target: P2RY4 (Homo sapiens, UniProt P51582)
Construct: purchased Promega (in-house HiBiT-GPCR construct library, NanoBRET)
Sequence (P51582 whole entry): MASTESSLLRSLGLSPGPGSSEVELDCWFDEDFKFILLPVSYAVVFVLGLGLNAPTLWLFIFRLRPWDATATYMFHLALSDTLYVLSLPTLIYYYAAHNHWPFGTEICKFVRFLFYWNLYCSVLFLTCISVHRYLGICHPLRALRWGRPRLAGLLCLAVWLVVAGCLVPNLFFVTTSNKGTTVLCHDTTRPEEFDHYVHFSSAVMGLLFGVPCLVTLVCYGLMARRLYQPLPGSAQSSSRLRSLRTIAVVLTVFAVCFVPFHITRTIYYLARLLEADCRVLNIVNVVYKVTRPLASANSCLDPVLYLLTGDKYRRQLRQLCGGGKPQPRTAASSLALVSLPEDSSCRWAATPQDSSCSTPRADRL
Test: NanoBRET screen HiBiT-P2RY4 in HEK293
Assay type: binding
Details: P2RY4; tracer 0.1μM
Protocol: Each tracer candidate was screened across the entire library of HiBiT-GPCR constructs using NanoBRET as the detection modality. As depicted in Figure 4A, the specificity of interactions was evaluated through decrease in BRET due to competitive displacement of a bound tracer by excess parental compound. Each tracer was analyzed for binding to each HiBiT-GPCR fusion in the absence and in the presence of competing parental compound. […]
This section presents compounds with their documented NanoBRET Fold Response values.
Measure name: NanoBRET Fold Response

compound="Cc1cc2c(s1)Nc1ccccc1N=C2N1CCN(CCCNC(=O)CCOCCOCCOCCOCCNC(=O)CCc2ccc3n2[B-](F)(F)[N+]2=C(c4ccc[nH]4)C=CC2=C3)CC1 [Olanzapine-a-2-NB590]" observed_value=1.07
compound="CC(C)N(CC[C@H](c1ccccc1)c1cc(CCNC(=O)c2ccc(CNC(=O)CCc3ccc4n3[B-](F)(F)[N+]3=C(c5ccc[nH]5)C=CC3=C4)cc2)ccc1O)C(C)C [Tolterodine-BZ-NB590]" observed_value=0.97
compound="CC(C)N(CC[C@H](c1ccccc1)c1cc(CCNC(=O)CCOCCOCCOCCOCCNC(=O)CCc2ccc3n2[B-](F)(F)[N+]2=C(c4ccc[nH]4)C=CC2=C3)ccc1O)C(C)C [Tolterodine-2-NB590]" observed_value=1.08
compound="O=C(CCc1ccc2n1[B-](F)(F)[N+]1=C(c3ccc[nH]3)C=CC1=C2)NCc1ccc(C(=O)NCCOCCC(=O)N[C@@H]2CC[C@@]3(O)[C@H]4Cc5ccc(O)c6c5[C@@]3(CCN4CC3CC3)[C@H]2O6)cc1 [Naltrexone-3-NB590]" observed_value=1.32
compound="COc1ccccc1N1CCN(CCCCN2C(=O)c3ccc(CNC(=O)CCOCCNC(=O)c4ccc(CNC(=O)CCc5ccc6n5[B-](F)(F)[N+]5=C(c7ccc[nH]7)C=CC5=C6)cc4)cc3C2=O)CC1 [NAN-190-3-NB590]" observed_value=0.86

====

Target: AVPR2 (Homo sapiens)
Construct: purchased Promega (in-house HiBiT-GPCR construct library, NanoBRET)
Sequence (P30518 whole entry): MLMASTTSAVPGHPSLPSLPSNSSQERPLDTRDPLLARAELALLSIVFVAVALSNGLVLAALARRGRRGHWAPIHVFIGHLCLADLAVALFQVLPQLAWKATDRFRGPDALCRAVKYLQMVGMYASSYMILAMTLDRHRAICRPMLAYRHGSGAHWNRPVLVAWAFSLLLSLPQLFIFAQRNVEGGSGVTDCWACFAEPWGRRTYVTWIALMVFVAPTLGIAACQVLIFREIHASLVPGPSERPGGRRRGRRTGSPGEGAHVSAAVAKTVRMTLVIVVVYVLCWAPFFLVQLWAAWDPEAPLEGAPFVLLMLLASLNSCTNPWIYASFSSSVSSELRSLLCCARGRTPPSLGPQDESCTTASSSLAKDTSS
Assay: NanoBRET screen HiBiT-AVPR2 in HEK293
Type: binding
Conditions: AVPR2; tracer 1μM
Method: Each tracer candidate was screened across the entire library of HiBiT-GPCR constructs using NanoBRET as the detection modality. As depicted in Figure 4A, the specificity of interactions was evaluated through decrease in BRET due to competitive displacement of a bound tracer by excess parental compound. Each tracer was analyzed for binding to each HiBiT-GPCR fusion in the absence and in the presence of competing parental compound. […]
This section presents compounds with their documented NanoBRET Fold Response values.
Measure name: NanoBRET Fold Response

compound="COc1ccccc1N1CCN(CCCCN2C(=O)c3ccc(CNC(=O)CCOCCOCCOCCOCCNC(=O)CCc4ccc5n4[B-](F)(F)[N+]4=C(c6ccc[nH]6)C=CC4=C5)cc3C2=O)CC1 [NAN-190-2-NB590]" observed_value=0.98
compound="Cc1nc2n(c(=O)c1CCN1CCC(c3noc4cc(F)ccc34)CC1)CCCC2OC(=O)NCCOCCOCCOCCOCCNC(=O)CCc1ccc2n1[B-](F)(F)[N+]1=C(c3ccc[nH]3)C=CC1=C2 (stereo not drawn) [Risperidone-2-NB590]" observed_value=1.01
compound="O=C(CCc1ccc2n1[B-](F)(F)[N+]1=C(c3ccc[nH]3)C=CC1=C2)NCc1ccc(C(=O)NCCOCCC(=O)N[C@@H]2CC[C@@]3(O)[C@H]4Cc5ccc(O)c6c5[C@@]3(CCN4CC3CC3)[C@H]2O6)cc1 [Naltrexone-3-NB590]" observed_value=0.97
compound="CC(C)N(CC[C@H](c1ccccc1)c1cc(CCNC(=O)CCOCCOCCOCCOCCNC(=O)CCc2ccc3n2[B-](F)(F)[N+]2=C(c4ccc[nH]4)C=CC2=C3)ccc1O)C(C)C [Tolterodine-2-NB590]" observed_value=1.06
compound="Cc1cc2c(s1)Nc1ccccc1N=C2N1CCN(CCCNC(=O)CCOCCOCCOCCOCCNC(=O)CCc2ccc3n2[B-](F)(F)[N+]2=C(c4ccc[nH]4)C=CC2=C3)CC1 [Olanzapine-a-2-NB590]" observed_value=0.92
compound="N#CN=C(NCCCOc1cccc(CN2CCCCC2)c1)NCCNC(=O)CCOCCOCCOCCOCCNC(=O)CCc1ccc2n1[B-](F)(F)[N+]1=C(c3ccc[nH]3)C=CC1=C2 [Aminopotentidine-2-NB590]" observed_value=1.04
